Study system: T1, 4H3817-bN
T1 chain: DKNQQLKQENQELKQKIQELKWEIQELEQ
Experiment description: two-hybrid library CCNG1;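 also: natural log of median RNA to DNA barcode read ratio; higher means stronger binding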
Reported metric: interaction score

The examples below pair each entry with its known result.
* DKNQQLEQKIQELKQENQELEWKIQELKQ [4H3414-bN] | -0.982
* DKNQQLKQEIQELEQKIQELKWENQELKQ [4H3628-bN] | -1.03

I. DKNQQLKQENQELKQKIQELKWEIQELEQ [4H3817-bN]
II. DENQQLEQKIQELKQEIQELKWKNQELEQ [4H1359-bN]
stdin: Select the item with the higher value of interaction score from the options I and II listed. Reply with the label of the item you choose.
stdout: I
